# Test system: 653999-131-R-J2-PDC complex spheroids, growth % test/control;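 also: spheroids exposed to agents for seven days; 100% = DMSO vehicle control viability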
# run description: Anticancer human tumor 653999-131-R-J2-PDC patient-derived lung adenocarcinoma cell line growth inhibition [AhR]
# experimental context: second compound 0.316 µM; first compound 0.316 µM; hits give low values
quantity name: viability, T/C (%)
Note: unit % is implicit; provide only the numeric part.

Some solved cases for reference:
CC1(C)CCC(CN2CCN(c3ccc(C(=O)NS(=O)(=O)c4ccc(NCC5CCOCC5)c([N+](=O)[O-])c4)c(Oc4cnc5[nH]ccc5c4)c3)CC2)=C(c2ccc(Cl)cc2)C1 + CC(CO)NC(=O)c1cc(-c2ccc(Cl)cc2)nn(-c2cnn(C)c2)c1=O
103
COc1cccc2c1C(=O)c1c(O)c3c(c(O)c1C2=O)CC(O)(C(=O)CO)CC3OC1CC(N)C(O)C(C)O1 (centres undefined) + Cc1cncc(-c2nc(NCCc3c[nH]c4ccccc34)c3ncn(C(C)C)c3n2)c1
27.2
Nc1ccn(C2OC(CO)C(O)C2(F)F)c(=O)n1 (centres undefined) + Cc1cncc(-c2nc(NCCc3c[nH]c4ccccc34)c3ncn(C(C)C)c3n2)c1
45.5

Now let's try a different one.
## Input Tell me reported viability, T/C for O=C(C=Cc1cccc(S(=O)(=O)Nc2ccccc2)c1)NO + Cc1ccccc1N=Nc1ccc(NC(=O)c2ccnn2C)c(C)c1 , tested with 653999-131-R-J2-PDC complex spheroids, growth % test/control.
## Output 88
